// 3F8 Ortho Proliferation Signal 1:10 lookup, one value per entry
Target: T1, orthogonal hCD122 receptor (hoRb), hCD122 with H133D and Y134F (human, UniProt P14784 27-550)
T1 sequence: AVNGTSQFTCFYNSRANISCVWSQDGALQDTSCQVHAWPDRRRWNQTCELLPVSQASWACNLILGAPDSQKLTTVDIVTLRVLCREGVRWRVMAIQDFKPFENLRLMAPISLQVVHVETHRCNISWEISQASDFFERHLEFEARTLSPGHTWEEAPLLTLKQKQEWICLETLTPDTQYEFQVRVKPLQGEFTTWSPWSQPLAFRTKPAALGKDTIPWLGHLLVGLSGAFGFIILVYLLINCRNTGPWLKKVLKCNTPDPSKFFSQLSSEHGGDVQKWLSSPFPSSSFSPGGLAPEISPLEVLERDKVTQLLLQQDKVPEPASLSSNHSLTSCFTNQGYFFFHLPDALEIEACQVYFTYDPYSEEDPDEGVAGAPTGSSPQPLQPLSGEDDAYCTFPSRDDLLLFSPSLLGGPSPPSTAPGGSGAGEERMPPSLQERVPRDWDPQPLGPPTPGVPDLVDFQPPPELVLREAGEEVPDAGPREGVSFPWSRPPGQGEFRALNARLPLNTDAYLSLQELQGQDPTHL
Assay: cell-based or functional assay
property: 3F8 Ortho Proliferation Signal 1:10 (cts/min)

>>> endpoint_result("SQVSKA (ligand) APTSSSTKKTQLQLSQLLVSLKAILNGINNYKNPKLTRMLTFKFYMPKKATELKHLQCLEEELKPLEEVLNLAQSKNFHLRPRDLISNINVIVLELKGSETTFMCEYADETATIVEFLNRWITFCQSIISTLT")
56600
>>> endpoint_result("N88E, SQVLKA (ligand) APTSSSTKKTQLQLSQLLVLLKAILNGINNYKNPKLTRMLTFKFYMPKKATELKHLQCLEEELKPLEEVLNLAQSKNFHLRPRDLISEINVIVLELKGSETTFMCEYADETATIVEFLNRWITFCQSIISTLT")
588
>>> endpoint_result("Q126R, SQVLKA (ligand) APTSSSTKKTQLQLSQLLVLLKAILNGINNYKNPKLTRMLTFKFYMPKKATELKHLQCLEEELKPLEEVLNLAQSKNFHLRPRDLISNINVIVLELKGSETTFMCEYADETATIVEFLNRWITFCRSIISTLT")
18100
>>> endpoint_result("L85V, SQVLKA (ligand) APTSSSTKKTQLQLSQLLVLLKAILNGINNYKNPKLTRMLTFKFYMPKKATELKHLQCLEEELKPLEEVLNLAQSKNFHLRPRDVISNINVIVLELKGSETTFMCEYADETATIVEFLNRWITFCQSIISTLT")
41300
